# SYSTEM_NAME: Caspase-3 (Homo sapiens)
# TEST_NAME: Inhibitory activity against caspase-3 (Csp-3)
Can you tell me k3/Ki for the items I'm about to list?
Numbers only, in M⁻¹ s⁻¹.

Past entries and their recorded results:
CC(C)[C@H](NC(=O)COc1cccc2ccccc12)C(=O)N[C@@H](CC(=O)O)C(=O)COc1ccc(C(N)=O)cc1 17700
CC(=O)Nc1cccc(OCC(=O)[C@H](CC(=O)O)NC(=O)[C@@H](NC(=O)COc2cccc3ccccc23)C(C)C)c1 4900
CC(C)[C@H](NC(=O)COc1cccc2ccccc12)C(=O)N[C@@H](CC(=O)O)C(=O)COc1ccccc1F 26800
CC(C)[C@H](NC(=O)COc1cccc2ccccc12)C(=O)N[C@@H](CC(=O)O)C(=O)COc1ccccc1C(F)(F)F 20000
CC(C)[C@H](NC(=O)COc1cccc2ccccc12)C(=O)N[C@@H](CC(=O)O)C(=O)COc1ccc2oc(=O)sc2c1 5890
CC(C)[C@H](NC(=O)COc1cccc2ccccc12)C(=O)N[C@@H](CC(=O)O)C(=O)COc1ccc(C#N)cc1 10200
CC(C)[C@H](NC(=O)COc1cccc2ccccc12)C(=O)N[C@@H](CC(=O)O)C(=O)COc1ccc([N+](=O)[O-])cc1F 36500
CC(C)[C@H](NC(=O)COc1cccc2ccccc12)C(=O)N[C@@H](CC(=O)O)C(=O)COc1cccc(C(F)(F)F)c1 7980
CC(C)[C@H](NC(=O)COc1cccc2ccccc12)C(=O)N[C@@H](CC(=O)O)C(=O)COc1ccccc1[N+](=O)[O-] 73000
CC(C)[C@H](NC(=O)COc1cccc2ccccc12)C(=O)N[C@@H](CC(=O)O)C(=O)COc1ccc([N+](=O)[O-])cc1 8400

Please give k3/Ki for each item listed below.
1. CC(C)[C@H](NC(=O)COc1cccc2ccccc12)C(=O)N[C@@H](CC(=O)O)C(=O)COc1cc(F)cc(F)c1
2. CC(C)[C@H](NC(=O)COc1cccc2ccccc12)C(=O)N[C@@H](CC(=O)O)C(=O)COc1c(F)ccc(F)c1F
3. CC(C)[C@H](NC(=O)COc1cccc2ccccc12)C(=O)N[C@@H](CC(=O)O)C(=O)COc1ccc(F)c(F)c1

1. 9240
2. 188000
3. 6460

Would you mind giving k3/Ki for every compound in the list below?
1. CC(C)[C@H](NC(=O)COc1cccc2ccccc12)C(=O)N[C@@H](CC(=O)O)C(=O)COc1ccc(F)cc1F
2. CC(C)[C@H](NC(=O)COc1cccc2ccccc12)C(=O)N[C@@H](CC(=O)O)C(=O)COc1ccccc1

1. 21700
2. 19200

###

Hi there, I'd appreciate the recorded log10(k3/Ki) for every entry that follows.
# SYSTEM_NAME: UniProtKB P29452
# TEST_NAME: Inhibitory activity against murine caspase-1
Form field - Quantity: k3/Ki; Unit: M⁻¹ s⁻¹; Scale: log10

Below, 5 compounds whose answers are already recorded.
CC(C)[C@H](NC(=O)COc1cccc2ccccc12)C(=O)N[C@@H](CC(=O)O)C(=O)COc1cc(F)ccc1F 4.08
CC(C)[C@H](NC(=O)COc1cccc2ccccc12)C(=O)N[C@@H](CC(=O)O)C(=O)COc1ccc(F)c(F)c1F 4.08
CC(C)[C@H](NC(=O)COc1cccc2ccccc12)C(=O)N[C@@H](CC(=O)O)C(=O)COP(=O)(c1ccccc1)c1ccccc1 5.16
CC(C)[C@H](NC(=O)COc1cccc2ccccc12)C(=O)N[C@@H](CC(=O)O)C(=O)COc1ccccc1[N+](=O)[O-] 4.37
CC(C)[C@H](NC(=O)COc1cccc2ccccc12)C(=O)N[C@@H](CC(=O)O)C(=O)CF 5.11

For every listed record, write down its log10(k3/Ki).
1. CC(C)[C@H](NC(=O)COc1cccc2ccccc12)C(=O)N[C@@H](CC(=O)O)C(=O)COc1ccc(-c2ccccc2)cc1
2. CC(C)[C@H](NC(=O)COc1cccc2ccccc12)C(=O)N[C@@H](CC(=O)O)C(=O)COc1ccc(F)cc1

[3.19, 3.96]

###

Would you mind telling me the reported log10 of k3/Ki of each entry?
# SYSTEM_NAME: Caspase-8 (Homo sapiens)
# TEST_NAME: Inhibitory activity against caspase-8 (Csp-8)
Could you please treat all values as log10 of k3/Ki in M⁻¹ s⁻¹?

Examples from the recorded data:
CC(C)[C@H](NC(=O)COc1cccc2ccccc12)C(=O)N[C@@H](CC(=O)O)C(=O)COc1ccc(C(F)(F)F)cc1 2.29
CC(C)[C@H](NC(=O)COc1cccc2ccccc12)C(=O)N[C@@H](CC(=O)O)C(=O)COc1ccc(Oc2ccc(C(F)(F)F)cc2)cc1 3.05
CC(C)[C@H](NC(=O)COc1cccc2ccccc12)C(=O)N[C@@H](CC(=O)O)C(=O)COc1c(F)c(F)c(-c2c(F)c(F)c(F)c(F)c2F)c(F)c1F 4.02

Below are 3 compounds. Give each one its log10 of k3/Ki.
1. CC(C)[C@H](NC(=O)COc1cccc2ccccc12)C(=O)N[C@@H](CC(=O)O)C(=O)COc1cc(F)c(F)cc1F
2. CC(C)[C@H](NC(=O)COc1cccc2ccccc12)C(=O)N[C@@H](CC(=O)O)C(=O)COc1ccc(F)cc1
3. CC(C)[C@H](NC(=O)COc1cccc2ccccc12)C(=O)N[C@@H](CC(=O)O)C(=O)COc1ccccc1[N+](=O)[O-]

2.82
2.84
3.26

Batch: log10 of k3/Ki for all items listed.
1. CC(C)[C@H](NC(=O)COc1cccc2ccccc12)C(=O)N[C@@H](CC(=O)O)C(=O)COc1c(Cl)cccc1Cl
2. CC(C)[C@H](NC(=O)COc1cccc2ccccc12)C(=O)N[C@@H](CC(=O)O)C(=O)COc1c(F)ccc(F)c1F

[3.43, 4.23]

###

# SYSTEM_NAME: Caspase-8 (Homo sapiens)
# TEST_NAME: Inhibitory activity against caspase-8 (Csp-8)
For each record, write down the corresponding k3/Ki.
One number for each entry, in M⁻¹ s⁻¹.

Please review the entries below; each comes with its answer.
CC(C)[C@H](NC(=O)COc1cccc2ccccc12)C(=O)N[C@@H](CC(=O)O)C(=O)COc1ccc(C(=O)c2ccccc2)cc1 21
CC(C)[C@H](NC(=O)COc1cccc2ccccc12)C(=O)N[C@@H](CC(=O)O)C(=O)COc1cccc(C(F)(F)F)c1 150
CC(C)[C@H](NC(=O)COc1cccc2ccccc12)C(=O)N[C@@H](CC(=O)O)C(=O)COc1c(F)cc(F)cc1F 9080

Which measured k3/Ki belongs to CC(C)[C@H](NC(=O)COc1cccc2ccccc12)C(=O)N[C@@H](CC(=O)O)C(=O)COc1cc(F)cc(F)c1F , tested on Caspase-8 (Homo sapiens)?
1470

###

# SYSTEM_NAME: Caspase-1 (Mus musculus)
# Sequence (whole entry): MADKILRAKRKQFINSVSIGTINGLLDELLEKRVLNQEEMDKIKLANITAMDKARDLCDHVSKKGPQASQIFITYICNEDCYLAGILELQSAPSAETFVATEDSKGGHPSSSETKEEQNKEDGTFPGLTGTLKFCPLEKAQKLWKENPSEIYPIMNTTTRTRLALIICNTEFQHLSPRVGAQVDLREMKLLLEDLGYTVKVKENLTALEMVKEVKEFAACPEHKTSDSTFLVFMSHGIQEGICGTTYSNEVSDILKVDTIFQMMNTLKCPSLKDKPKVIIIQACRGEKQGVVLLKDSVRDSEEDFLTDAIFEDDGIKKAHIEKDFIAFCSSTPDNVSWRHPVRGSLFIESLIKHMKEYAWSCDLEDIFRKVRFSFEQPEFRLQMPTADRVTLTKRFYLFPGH
# TEST_NAME: Inhibitory activity against murine caspase-1
REPORTED_PROPERTY: k3/Ki (M⁻¹ s⁻¹)
Answers are plain numbers, in M⁻¹ s⁻¹.

Take a look at these entries with their results.
CC(C)[C@H](NC(=O)COc1cccc2ccccc12)C(=O)N[C@@H](CC(=O)O)C(=O)COc1c(F)cc(F)cc1F 20700
CC(C)[C@H](NC(=O)COc1cccc2ccccc12)C(=O)N[C@@H](CC(=O)O)C(=O)COc1ccc(F)c(F)c1 1620
CC(C)[C@H](NC(=O)COc1cccc2ccccc12)C(=O)N[C@@H](CC(=O)O)C(=O)COc1ccc(C(=O)c2ccccc2)cc1 1520

As a next step, examine the compound that follows.
Could you share which k3/Ki value was measured for CC(=O)Nc1cccc(OCC(=O)[C@H](CC(=O)O)NC(=O)[C@@H](NC(=O)COc2cccc3ccccc23)C(C)C)c1 ?
612

###

# SYSTEM_NAME: Caspase-1 (Mus musculus)
# TEST_NAME: Inhibitory activity against murine caspase-1
Please provide measured k3/Ki for the entries that follow.
One number for each entry, in M⁻¹ s⁻¹.

Hi, could you look up k3/Ki for each item in my list?
1. CC(C)[C@H](NC(=O)COc1cccc2ccccc12)C(=O)N[C@@H](CC(=O)O)C(=O)COc1cccc(F)c1F
2. CC(C)[C@H](NC(=O)COc1cccc2ccccc12)C(=O)N[C@@H](CC(=O)O)C(=O)COc1ccc2ccccc2c1
3. CC(C)[C@H](NC(=O)COc1cccc2ccccc12)C(=O)N[C@@H](CC(=O)O)C(=O)COc1cc(F)c(F)cc1F
4. CC(C)[C@H](NC(=O)COc1cccc2ccccc12)C(=O)N[C@@H](CC(=O)O)C(=O)COc1c(F)c(F)c(F)c(F)c1F

14800
263
11400
14700
